From: patent US10709692B2

pIC50 overview
Tested On: receptor interacting protein kinase 1 (GST-hRIPK1 (8-327)) (Homo sapiens, UniProt Q13546)
Construct: GST-hRIPK1 (8-327) enzyme was generated by Proteros GmbH by Baculovirus expression system
Method Summary: Fluorescent Polarization Binding (FP Binding) assay
Measurement Context: 10 nM GST-hRIPK1 (8-327), 5 nM fluorescent-labeled ligand, 30 min at RT
pIC50: −log10 of the molar value.

Known results for compounds:
[
  {
    "Compound": "CC1(C(=O)N2OCC[C@H]2c2ccc(F)c(F)c2)CCOC1 (single isomer, unassigned) [Compound 212]",
    "Tested On": "receptor interacting protein kinase 1 (GST-hRIPK1 (8-327)) (Homo sapiens, UniProt Q13546)",
    "Result": "> 6.00"
  },
  {
    "Compound": "N#Cc1ccc([C@@H]2CCON2C(=O)C2(C(F)F)CC2)cc1",
    "Tested On": "receptor interacting protein kinase 1 (GST-hRIPK1 (8-327)) (Homo sapiens, UniProt Q13546)",
    "Result": "> 6.00"
  },
  {
    "Compound": "CC(C)(C(=O)N1OCC[C@@H]1c1ccc(C#N)s1)C(F)F",
    "Tested On": "receptor interacting protein kinase 1 (GST-hRIPK1 (8-327)) (Homo sapiens, UniProt Q13546)",
    "Result": "> 6.00"
  },
  {
    "Compound": "CC(CC(F)F)C(=O)N1OCC[C@H]1c1ccc(C#N)cc1 (single isomer, unassigned) [Compound 232]",
    "Tested On": "receptor interacting protein kinase 1 (GST-hRIPK1 (8-327)) (Homo sapiens, UniProt Q13546)",
    "Result": "> 6.00"
  },
  {
    "Compound": "CC1(C(=O)N2OCC[C@H]2c2ccc(F)nc2)CC1(F)F (single isomer, unassigned) [Compound 112]",
    "Tested On": "receptor interacting protein kinase 1 (GST-hRIPK1 (8-327)) (Homo sapiens, UniProt Q13546)",
    "Result": "> 6.00"
  }
]

// query pIC50 value for entry CC(OC(F)(F)F)C(=O)N1OCC[C@H]1c1ccc(F)nc1 (single isomer, unassigned) [Compound 184]
> 6.00

Tell me the measured pIC50 of CC(C)(COC(F)(F)F)C(=O)N1OCC[C@H]1c1cncc(F)c1 , please.
> 6.00

Please give the measured pIC50 for this compound: CC(C)(C)C(=O)N1OCC[C@H]1c1ccc(C(F)F)cc1
> 6.00

So what's the measured pIC50 for this one? C[C@@]1(C(=O)N2OCC[C@H]2c2ccc(F)cc2)CCC(=O)N1
> 6.00

Reported pIC50, compound CC(C)(C)C(=O)N1OCCC1c1ccc(F)cc1 (single isomer, unassigned) [Compound 74] : ____
< 5.00

Look at this compound and give its reported pIC50. CC(C(=O)N1OCC[C@H]1c1ccc(C#N)cc1)C1CC1 (single isomer, unassigned) [Compound 214]
> 6.00

Any idea what its pIC50 is? The compound is CC(C)C(=O)N1OCC[C@@H]1c1ccc(F)cc1
< 5.00

Which value of pIC50 has been reported for CC(C)(C)C(=O)N1OCC[C@H]1c1cc[nH]n1 in the records?
> 6.00

====

Tested On: receptor interacting protein kinase 1 (GST-hRIPK1 (8-327)) (Homo sapiens, UniProt Q13546)
Construct: GST-hRIPK1 (8-327) enzyme was generated by Proteros GmbH by Baculovirus expression system
Sequence (Q13546 8-327): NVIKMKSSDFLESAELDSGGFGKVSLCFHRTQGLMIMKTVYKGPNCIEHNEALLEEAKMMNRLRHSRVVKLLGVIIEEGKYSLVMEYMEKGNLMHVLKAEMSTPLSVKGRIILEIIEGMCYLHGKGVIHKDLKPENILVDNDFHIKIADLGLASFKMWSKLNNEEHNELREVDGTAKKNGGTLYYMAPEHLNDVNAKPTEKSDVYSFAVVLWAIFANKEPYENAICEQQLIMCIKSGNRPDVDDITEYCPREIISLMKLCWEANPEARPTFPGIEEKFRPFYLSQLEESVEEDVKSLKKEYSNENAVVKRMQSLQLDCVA
Method Summary: ADP-Glo luminescence assay, RIPK1 autophosphorylation
Type: biochemical
Measurement Context: 1.5 μg/mL GST-hRIPK1 (8-327), 50 μM ATP, 3 hours at room temperature
Experimental: Compound potency at receptor interacting protein kinase 1 and selectivity at receptor interacting protein kinase 2 and receptor interacting protein kinase 3 was determined in autophosphorylation mode, using an ADP-Glo luminescence assay, which measures the conversion of ATP to ADP. GST-hRIPK1 (8-327) enzyme was generated by Proteros GmbH by Baculovirus expression system. […] The luminescence is then measured with the Envision (PerkinElmer) plate reader. […]
Test Readout: IC50

[
  {
    "Molecule": "COC(C)(C)C(=O)N1OCC[C@H]1c1ccccc1 [Compound 80]",
    "IC50": "< 1000 nM"
  },
  {
    "Molecule": "CC(C)(C)C(=O)N1OCC[C@@H]1c1ccccc1F [Compound 71]",
    "IC50": "< 1000 nM"
  },
  {
    "Molecule": "O=C(N1CCCC1)N1OCC[C@H]1c1ccccc1 [Compound 7]",
    "IC50": "1000 to 10000 nM"
  }
]

So what does the record say about IC50 for COCC(=O)N1OCC[C@H]1c1ccccc1 [Compound 13] ?
1000 to 10000 nM

Item under review: O=C(C1CC1)N1OCC[C@H]1c1ccccc1 [Compound 12] . Reported IC50?
< 1000 nM

Dear colleague, I am looking for the recorded IC50 of the following molecule: O=C(c1onc2ccccc12)N1OCC[C@H]1c1ccccc1 [Compound 18]
< 1000 nM

# query: IC50 of entry CC(C)(C)C(=O)N1OCCC1c1ccc(F)cc1 (single isomer, unassigned) [Compound 73]
< 1000 nM

What does the data say about its IC50? Entry: C[C@@H](O)C(=O)N1OCC[C@H]1c1ccccc1 [Compound 14]
> 10000 nM

What measured IC50 goes with CC1(C(=O)N2OCC[C@H]2c2ccccc2)CC1 [Compound 20] ?
< 1000 nM
